# Measurement notes: folding enthalpy; higher = less favourable; fluorescence melt of hairpins on a sequencing array, two-state fit
# Condition notes: sodium 0.088 M
Parameter folding enthalpy: see the listing below.
Quantity measured: folding enthalpy (kJ/mol)

>  <Primary sequence>
GCTACCGGAAACGGTAAC (.(((((....))))).)

>  <Quantity measured>
folding enthalpy

>  <Display unit>
kJ/mol

>  <Value>
-54

$$$$
>  <Primary sequence>
GTGCTGGCGAAAGCCCAC (((..(((....))))))

>  <Quantity measured>
folding enthalpy

>  <Display unit>
kJ/mol

>  <Value>
-43.1

$$$$
>  <Primary sequence>
GGTAGCGAAAGCTTCACC ((((((....)))..)))

>  <Quantity measured>
folding enthalpy

>  <Display unit>
kJ/mol

>  <Value>
-57.7

$$$$
>  <Primary sequence>
GATCTACTGCTAGATC ((((((....))))))

>  <Quantity measured>
folding enthalpy

>  <Display unit>
kJ/mol

>  <Value>
-109

$$$$
>  <Primary sequence>
GGTCCGGGAAACTGGGCC ((.((.(....).)).))

>  <Quantity measured>
folding enthalpy

>  <Display unit>
kJ/mol

>  <Value>
-148

$$$$
>  <Primary sequence>
GATATACGAAAGTAGATC (((.(((....))).)))

>  <Quantity measured>
folding enthalpy

>  <Display unit>
kJ/mol

>  <Value>
-130

$$$$
>  <Primary sequence>
GTGGTTTCGAAAGAACAC (((..(((....))))))

>  <Quantity measured>
folding enthalpy

>  <Display unit>
kJ/mol

>  <Value>
-65.4

$$$$
>  <Primary sequence>
GATCTCGTCCGAGATC ((((((....))))))

>  <Quantity measured>
folding enthalpy

>  <Display unit>
kJ/mol

>  <Value>
-161

$$$$
>  <Primary sequence>
GATCTGTGTCCAGATC ((((((....))))))

>  <Quantity measured>
folding enthalpy

>  <Display unit>
kJ/mol

>  <Value>
-133

$$$$
>  <Primary sequence>
GTCAATGGAAACATTGGC (.(((((....))))).)

>  <Quantity measured>
folding enthalpy

>  <Display unit>
kJ/mol

>  <Value>
-116

$$$$
>  <Primary sequence>
GTGCACGGAAACGCGCAC ((((.((....)).))))

>  <Quantity measured>
folding enthalpy

>  <Display unit>
kJ/mol

>  <Value>
-205

$$$$
>  <Primary sequence>
GCGTCCCCACGC ((((....))))

>  <Quantity measured>
folding enthalpy

>  <Display unit>
kJ/mol

>  <Value>
-87.9

$$$$

* * *

# Measurement notes: folding enthalpy; higher = less favourable; fluorescence melt of hairpins on a sequencing array, two-state fit
# Condition notes: sodium 0.088 M
Parameter folding enthalpy: see the listing below.

>  <Primary sequence>
GATCTACGCGTAGATC ((((((....))))))

>  <folding enthalpy, kcal/mol>
-52.1

$$$$
>  <Primary sequence>
GATCACTCGTGTGATC ((((((....))))))

>  <folding enthalpy, kcal/mol>
-37.1

$$$$
>  <Primary sequence>
GATCATCCGTATGATC ((((((....))))))

>  <folding enthalpy, kcal/mol>
-38.9

$$$$
>  <Primary sequence>
GTGGAGGGAAACTTCCAC (((((.(....).)))))

>  <folding enthalpy, kcal/mol>
-30.4

$$$$
>  <Primary sequence>
GTATACGAAAGTATGTAC ((((((....)))..)))

>  <folding enthalpy, kcal/mol>
-12.4

$$$$
>  <Primary sequence>
GCTTTGCGAAAGCGATGC ((.(.((....)).).))

>  <folding enthalpy, kcal/mol>
-19.2

$$$$

Attribution: the array DNA melting data of Ke et al. (doi:10.1101/2024.01.08.574731)
